Here the recorded Ki is given for each entry.
- assayed-target: Glucocorticoid receptor (Homo sapiens, UniProt P04150)
- Sequence (P04150 whole entry): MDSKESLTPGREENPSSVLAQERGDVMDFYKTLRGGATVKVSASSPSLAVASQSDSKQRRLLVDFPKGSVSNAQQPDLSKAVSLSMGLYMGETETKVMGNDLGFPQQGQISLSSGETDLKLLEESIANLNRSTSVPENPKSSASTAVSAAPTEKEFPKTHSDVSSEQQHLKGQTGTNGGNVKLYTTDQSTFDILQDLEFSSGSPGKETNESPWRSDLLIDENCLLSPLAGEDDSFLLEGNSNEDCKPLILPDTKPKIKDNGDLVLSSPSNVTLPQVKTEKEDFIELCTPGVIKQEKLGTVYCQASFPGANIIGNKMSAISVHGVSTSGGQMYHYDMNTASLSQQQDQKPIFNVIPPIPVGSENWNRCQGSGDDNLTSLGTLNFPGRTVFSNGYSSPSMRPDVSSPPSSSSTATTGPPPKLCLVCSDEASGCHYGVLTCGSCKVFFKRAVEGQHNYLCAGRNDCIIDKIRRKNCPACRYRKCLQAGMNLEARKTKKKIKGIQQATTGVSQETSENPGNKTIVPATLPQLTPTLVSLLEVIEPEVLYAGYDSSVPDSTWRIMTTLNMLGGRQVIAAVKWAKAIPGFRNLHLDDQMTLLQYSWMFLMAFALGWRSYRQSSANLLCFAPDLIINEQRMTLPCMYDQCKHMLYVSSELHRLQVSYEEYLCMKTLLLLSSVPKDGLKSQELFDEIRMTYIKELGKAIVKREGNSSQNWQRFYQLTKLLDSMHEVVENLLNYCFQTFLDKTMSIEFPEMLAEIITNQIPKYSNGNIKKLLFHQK
- protocol-summary: Displacement of [3H]dexamethasone from human glucocorticoid receptor expressed in recombinant baculovirus

compound | comparator | Ki, nM
CC(C)(C)c1ccc(S(=O)(=O)N2CCC3=CC(=O)CC[C@]3(Cc3ccccc3)C2)cc1 | = | 4
O=C1C=C2CCN(Cc3ccncc3)CC2(Cc2ccccc2)CC1 (racemic) | > | 10000
O=C1C=C2CCN(C(=O)Nc3ccccc3)CC2(Cc2ccccc2)CC1 (racemic) | > | 10000
CC(=O)Nc1ccc(CC23CCC(=O)C=C2CCN(S(=O)(=O)c2ccc(C(C)(C)C)cc2)C3)cc1 (racemic) | = | 56
CN(C)c1ccc(S(=O)(=O)N2CCC3=CC(=O)CCC3(Cc3ccccc3)C2)cc1 (racemic) | = | 113
CC(C)(C)c1ccc(S(=O)(=O)N2CCC3=CC(=O)CCC3(Cc3ccc(-c4ccncc4)cc3)C2)cc1 (racemic) | = | 2
Cc1ccc(S(=O)(=O)N2CCC3=CC(=O)CCC3(Cc3ccccc3)C2)cc1 (racemic) | = | 99
COc1ccc(N2CCC3=CC(=O)CCC3(Cc3ccccc3)C2)cc1 (configuration not stated) | > | 5000
O=C1C=C2CCN(S(=O)(=O)c3ccc(N4CCOCC4)cc3)CC2(Cc2ccccc2)CC1 (configuration not stated) | = | 64
CC(C)(C)c1ccc(S(=O)(=O)N2CCC3=CC(=O)CCC3(Cc3ccc(NS(C)(=O)=O)cc3)C2)cc1 (racemic) | = | 13
CC(C)(C)c1ccc(S(=O)(=O)N2CCC3=CC(=O)CCC3(Cc3ccc(N4CCOCC4)cc3)C2)cc1 (configuration not stated) | = | 10
O=C1C=C2CCN(S(=O)(=O)c3ccc(Oc4ccccc4)cc3)CC2(Cc2ccccc2)CC1 (racemic) | = | 163
O=C1C=C2CCN(S(=O)(=O)c3ccc([N+](=O)[O-])cc3)CC2(Cc2ccccc2)CC1 (racemic) | = | 1250
COc1cccc(S(=O)(=O)N2CCC3=CC(=O)CCC3(Cc3ccccc3)C2)c1 (racemic) | = | 196
O=C1C=C2CCN(S(=O)(=O)c3ccc(Cl)cc3)CC2(Cc2ccccc2)CC1 (racemic) | = | 193
CC(C)(C)c1ccc(S(=O)(=O)N2CCC3=CC(=O)CCC3(Cc3ccc(N4CCCCC4)cc3)C2)cc1 (racemic) | = | 9
CCCCS(=O)(=O)N1CCC2=CC(=O)CCC2(Cc2ccccc2)C1 (racemic) | > | 10000
